Entries and their measured AUC(0-t) follow.
assay: Mouse 6-hour PK study; settings: mouse, in vivo

Worked examples follow.
- COMPOUND: "O=c1c(O)cc(C2CC2)ccc1F"
  READOUT VALUE: "> 20000 ng·h/mL"
- COMPOUND: "CC(C)c1ccc(F)c(=O)c(O)c1"
  READOUT VALUE: "5000 to 20000 ng·h/mL"
- COMPOUND: "O=c1ccccc(C2CCOCC2)c1O"
  READOUT VALUE: "500 to 1500 ng·h/mL"

Specify AUC(0-t) for CC(C)c1cccc(F)c(=O)c1O and stop. > 20000 ng·h/mL

Specify AUC(0-t) for O=c1ccccc(OCC2CC2)c1O and stop. 500 to 1500 ng·h/mL

Specify AUC(0-t) for O=c1cccc(C2CC3CCC(C2)O3)cc1O (centres unmarked) and stop. 500 to 1500 ng·h/mL

Specify AUC(0-t) for Cc1cccc(F)c(=O)c1O and stop. > 20000 ng·h/mL

---

experiment: Mouse liver microsomal stability assay; assay type: in vitro ADME; conditions: mouse liver microsomes; read-out: Mouse CLint
ENDPOINT NAME: microsomal CLint (µL/min/mg)
Express your answer in µL/min/mg, writing the number without its unit.

Specify microsomal CLint for CC(C)c1cccc(=O)c(O)c1 [hinokitiol, reference compound] and stop. 46.7

---

experiment: Mouse liver microsomal stability assay; assay type: in vitro ADME; settings: mouse, microsomes
Entries and their measured microsomal CLint follow.

Worked examples follow.
- MOLECULE: "CC(C)c1ccc(F)c(=O)c(O)c1 [Ex. 1]"
  microsomal CLint: "< 25 µL/min/mg"
- MOLECULE: "CC(C)c1cccc(=O)c(O)c1F [Ex. 2]"
  microsomal CLint: "< 25 µL/min/mg"
- MOLECULE: "O=c1ccccc([C@@H]2CCCO2)c1O (single isomer, unassigned) [Ex. 42]"
  microsomal CLint: "25 to 50 µL/min/mg"
- MOLECULE: "CC(C)c1cccc(F)c(=O)c1O [Ex. 4]"
  microsomal CLint: "25 to 50 µL/min/mg"
- MOLECULE: "Cc1cccc(F)c(=O)c1O [Ex. 32]"
  microsomal CLint: "< 25 µL/min/mg"
- MOLECULE: "O=c1ccccc([C@H]2CCCO2)c1O (single isomer, unassigned) [Ex. 41]"
  microsomal CLint: "25 to 50 µL/min/mg"
- MOLECULE: "O=c1c(F)cccc(C2CCOCC2)c1O [Ex. 36]"
  microsomal CLint: "< 25 µL/min/mg"

Now for the molecule whose microsomal CLint we want.
Specify microsomal CLint for O=c1ccccc(OC2CCC2)c1O [Ex. 56] and stop. 25 to 50 µL/min/mg

---

assay: Mouse 6-hour PK study; settings: mouse, in vivo
ENDPOINT NAME: Cmax

Worked examples follow.
- COMPOUND: "O=c1ccccc([C@H]2CCCO2)c1O (single isomer, unassigned)"
  Cmax: "1500 to 5000 ng/mL"
- COMPOUND: "O=c1ccccc(OCC2CC2)c1O"
  Cmax: "1500 to 5000 ng/mL"
- COMPOUND: "CC(C)c1ccc(F)c(=O)c(O)c1"
  Cmax: "5000 to 20000 ng/mL"

Specify Cmax for CC(C)c1cccc(=O)c(O)c1F and stop. 5000 to 20000 ng/mL

Specify Cmax for O=c1cccc(C2CC3CCC(C2)O3)cc1O (stereo not drawn) and stop. 500 to 1500 ng/mL

Specify Cmax for O=c1c(F)cccc(C2CCOCC2)c1O and stop. > 20000 ng/mL

Specify Cmax for O=c1ccccc(C2CCOCC2)c1O and stop. 500 to 1500 ng/mL

Specify Cmax for O=c1ccccc(OC2CCC2)c1O and stop. 1500 to 5000 ng/mL

Specify Cmax for O=c1ccc(OC2COC2)ccc1O and stop. 500 to 1500 ng/mL

---

assay: Mouse 6-hour PK study; conditions: mouse, in vivo
ENDPOINT NAME: Cmax

Worked examples follow.
- COMPOUND: "O=c1ccccc([C@@H]2CCCO2)c1O (single isomer, unassigned)"
  READOUT VALUE: "1500 to 5000 ng/mL"
- COMPOUND: "CC(C)c1cccc(F)c(=O)c1O"
  READOUT VALUE: "5000 to 20000 ng/mL"
- COMPOUND: "O=c1c(O)cc(C2CC2)ccc1F"
  READOUT VALUE: "5000 to 20000 ng/mL"
- COMPOUND: "CCc1cccc(C)c(=O)c1O"
  READOUT VALUE: "500 to 1500 ng/mL"

Now for the compound whose Cmax we want.
Specify Cmax for Cc1cccc(C(C)C)c(O)c1=O and stop. < 499 ng/mL

---

assay: Mouse liver microsomal stability assay; assay type: in vitro ADME; conditions: mouse liver microsomes; read-out: Mouse t1/2
ENDPOINT NAME: half-life (min)
Express your answer in min, writing the number without its unit.

Specify half-life for CC(C)c1cccc(=O)c(O)c1 [hinokitiol, reference compound] and stop. 29.7

---

Entries and their measured Caco2 shDMT1 transport FC @ 3 μM, 4 h follow.
tested on: DMT1-deficient Caco-2 cells; assay: shDMT1-Caco2 55Fe transport assay; type: cell-based; conditions: Caco-2

Worked examples follow.
- COMPOUND: "CC(C)c1ccc(C(F)(F)F)c(=O)c(O)c1"
  Caco2 shDMT1 transport FC @ 3 μM, 4 h: "0.01-0.5"
- COMPOUND: "O=c1cccc(OC2COC2)cc1O"
  Caco2 shDMT1 transport FC @ 3 μM, 4 h: "0.01-0.5"
- COMPOUND: "O=c1ccccc(C2CCCCO2)c1O (centres unmarked)"
  Caco2 shDMT1 transport FC @ 3 μM, 4 h: "1-5"
- COMPOUND: "O=c1ccc(OC2CCC2)ccc1O"
  Caco2 shDMT1 transport FC @ 3 μM, 4 h: "1-5"
- COMPOUND: "O=c1cccc(C2CCCO2)cc1O (centres unmarked)"
  Caco2 shDMT1 transport FC @ 3 μM, 4 h: "0.01-0.5"
- COMPOUND: "O=c1ccccc(C2CCOCC2)c1O [drawing 183]"
  Caco2 shDMT1 transport FC @ 3 μM, 4 h: "1-5"
- COMPOUND: "O=c1cccc(C2CCOCC2)cc1O"
  Caco2 shDMT1 transport FC @ 3 μM, 4 h: "0.01-0.5"

Now for the compound whose Caco2 shDMT1 transport FC @ 3 μM, 4 h we want.
Specify Caco2 shDMT1 transport FC @ 3 μM, 4 h for O=c1ccc(OC2CC2)ccc1O and stop. 0.5-1

---

test: Human liver microsomal stability assay; format: in vitro ADME; details: human, microsomes
ENDPOINT NAME: microsomal CLint

Worked examples follow.
- COMPOUND: "CC(C)c1ccc(F)c(=O)c(O)c1"
  microsomal CLint: "25 to 50 µL/min/mg"
- COMPOUND: "CC(C)c1cccc(=O)c(O)c1F"
  microsomal CLint: "< 25 µL/min/mg"
- COMPOUND: "O=c1ccccc([C@H]2CCCO2)c1O (single isomer, unassigned)"
  microsomal CLint: "25 to 50 µL/min/mg"
- COMPOUND: "CC(C)c1cccc(F)c(=O)c1O"
  microsomal CLint: "> 50 µL/min/mg"
- COMPOUND: "O=c1ccccc(OC2CCC2)c1O"
  microsomal CLint: "< 25 µL/min/mg"

Specify microsomal CLint for Cc1cccc(F)c(=O)c1O and stop. < 25 µL/min/mg

Specify microsomal CLint for O=c1ccccc([C@@H]2CCCO2)c1O (single isomer, unassigned) and stop. < 25 µL/min/mg

---

assay: Human liver microsomal stability assay; format: in vitro ADME; conditions: human liver microsomes; read-out: Human CLint
ENDPOINT NAME: microsomal CLint (µL/min/mg)
Express your answer in µL/min/mg, writing the number without its unit.

Specify microsomal CLint for CC(C)c1cccc(=O)c(O)c1 [hinokitiol, reference compound] and stop. 120

---

assay: Mouse 6-hour PK study; settings: in vivo; mouse 6-hour PK; read-out: t1/2 (converted)
ENDPOINT NAME: half-life (h)
Express your answer in h, writing the number without its unit.

Specify half-life for CC(C)c1cccc(=O)c(O)c1 [hinokitiol, reference compound] and stop. 1.11

---

assay: Mouse liver microsomal stability assay; assay type: in vitro ADME; settings: mouse, microsomes
ENDPOINT NAME: half-life

Worked examples follow.
- MOLECULE: "CC(C)c1cccc(=O)c(O)c1F"
  half-life: "> 150 min"
- MOLECULE: "CC(C)c1ccc(F)c(=O)c(O)c1"
  half-life: "> 150 min"
- MOLECULE: "CC(C)c1cccc(F)c(=O)c1O"
  half-life: "25 to 50 min"

Specify half-life for Cc1cccc(F)c(=O)c1O and stop. > 150 min

Specify half-life for O=c1ccccc(OC2CCC2)c1O and stop. 25 to 50 min

Specify half-life for O=c1ccccc([C@H]2CCCO2)c1O (single isomer, unassigned) and stop. 25 to 50 min

Specify half-life for O=c1ccccc([C@@H]2CCCO2)c1O (single isomer, unassigned) and stop. 25 to 50 min

Specify half-life for O=c1c(F)cccc(C2CCOCC2)c1O and stop. > 150 min
